Catalogue of molecules with associated Kd
target: GDP-bound KRAS wild-type protein (Homo sapiens, UniProt P01116); experiment: Binding to KRAS by surface plasmon resonance (SPR), Single Cycle Kinetics; conditions: SPR, Single Cycle Kinetics, GDP-bound KRAS wild-type protein; read-out: KRAS KD
Sequence (P01116 whole entry): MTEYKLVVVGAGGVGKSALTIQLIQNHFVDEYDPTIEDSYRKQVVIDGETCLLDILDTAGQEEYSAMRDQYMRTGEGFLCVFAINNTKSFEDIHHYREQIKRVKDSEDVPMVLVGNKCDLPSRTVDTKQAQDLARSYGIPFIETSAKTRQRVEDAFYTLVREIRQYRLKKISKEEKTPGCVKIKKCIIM
// note: answer is a bare numeric in nM

MOLECULE | UOM | Kd
CCO[C@@H]1C[C@H]2C(=O)NC3(CCCC3)C(=O)N(C)[C@@H](C3CCCC3)C(=O)N(C)[C@H](C(=O)N(C)C)CC(=O)N(C)[C@@H](CC(C)C)C(=O)N[C@@H]([C@@H](C)CC)C(=O)N(C)CC(=O)N(C)[C@H]3CC(C)=C(C)CN(C3=O)[C@@H](Cc3ccc(C(F)(F)F)cc3)C(=O)N(C)CC(=O)N[C@@H](CCc3cc(F)c(C(F)(F)F)c(F)c3)C(=O)N2C1 [PP1045] | nM | 1.7

Pending molecule:
Sample CCO[C@@H]1C[C@H]2C(=O)NC3(CCC3)C(=O)N(C)[C@@H](C3CCCC3)C(=O)N(C)[C@H](C(=O)N(C)C)CC(=O)N(C)[C@@H](CC)C(=O)N[C@@H]([C@@H](C)CC)C(=O)N3CC[C@H]3C(=O)N(C)[C@H]3CC(C)=CCN(C3=O)[C@@H](Cc3ccc(C(F)(F)F)cc3)C(=O)N(C)CC(=O)N[C@@H](CCc3cc(F)c(C(F)(F)F)c(F)c3)C(=O)N2C1 [PP1035] ; Kd observed: 0.52

====

Catalogue of compounds with associated pKd
target: GDP-bound KRAS wild-type protein (Homo sapiens, UniProt P01116); test: Binding to KRAS by surface plasmon resonance (SPR), Single Cycle Kinetics; conditions: SPR Single Cycle Kinetics, GDP-bound KRAS wild-type protein, 1:1 binding model; read-out: KRAS KD
*1 amine or outer side, *2 acyl side, *3 side chain or, on linkers, in order; H or OH if unused. Where a SMILES comes first, the peptide text is derived from it. Bridges are numbered along the chain shown (N, C = ends). [ ]: non-standard residue; d: D form. The star is where a group is joined. hPhe(3-Cl-4-CF3) = N[C@@H](CCc1ccc(C(F)(F)F)c(Cl)c1)C(=O)O; X42 = Cc1ccc(C[C@@H](C(=O)[*:2])N(CC2CCC2)[*:1])cc1; NEtPhe(4-Me) = CCN[C@@H](Cc1ccc(C)cc1)C(=O)O; NMeGly(cPent) = CN[C@H](C(=O)O)C1CCCC1; NMeD = CN[C@@H](CC(=O)O)C(=O)O; NMeL = CN[C@@H](CC(C)C)C(=O)O; Morpholide = C1CN(*)CCO1; NMeA = CN[C@@H](C)C(=O)O; Ac5c = NC1(C(=O)O)CCCC1; Sar = CNCC(=O)O
Bear in mind: pKd is minus log10 of a mol/L concentration; give just that figure.

Worked set:
COMPOUND | TARGET OF ASSAY | ASSAY VALUE
CC[C@H](C)[C@@H]1NC(=O)[C@H](CC(C)C)N(C)C(=O)C[C@@H](C(=O)N2CCOCC2)N(C)C(=O)[C@H](C2CCCC2)N(C)C(=O)C2(CCCC2)NC(=O)[C@@H]2CCCN2C(=O)[C@H](CCc2ccc(C(F)(F)F)c(Cl)c2)NC(=O)CN(C)C(=O)[C@H](Cc2ccc(C)cc2)N(CC2CCC2)C(=O)CN(C)C(=O)CN(C)C1=O [PP0095] ([NMeL]I[Sar][Sar][X42][Sar][hPhe(3-Cl-4-CF3)]P[Ac5c][NMeGly(cPent)][NMeD]-Morpholide; lactam N-11) | GDP-bound KRAS wild-type protein (Homo sapiens, UniProt P01116) | 9.10
CC[C@H](C)[C@@H]1NC(=O)[C@H](C)N(C)C(=O)C[C@@H](C(=O)N2CCOCC2)N(C)C(=O)[C@H](C2CCCC2)N(C)C(=O)C2(CCCC2)NC(=O)[C@@H]2CCCN2C(=O)[C@H](CCc2ccc(C(F)(F)F)c(Cl)c2)NC(=O)CN(C)C(=O)[C@H](Cc2ccc(C)cc2)N(CC)C(=O)CN(C)C(=O)CN(C)C1=O [PP0031] ([NMeA]I[Sar][Sar][NEtPhe(4-Me)][Sar][hPhe(3-Cl-4-CF3)]P[Ac5c][NMeGly(cPent)][NMeD]-Morpholide; lactam N-11) | GDP-bound KRAS wild-type protein (Homo sapiens, UniProt P01116) | 9.74

Pending compound:
Sample CC[C@H](C)[C@@H]1NC(=O)[C@H](CC(C)C)N(C)C(=O)C[C@@H](C(=O)N2CCOCC2)N(C)C(=O)[C@H](C2CCCC2)N(C)C(=O)C2(CCCC2)NC(=O)[C@H](C)N(CC)C(=O)[C@H](CCc2cc(F)c(C(F)(F)F)c(F)c2)NC(=O)CN(C)C(=O)[C@H](Cc2ccc(C(F)(F)F)cc2)N2CCCCC[C@@H](C2=O)N(C)C(=O)CN(C)C1=O ; pKd observed: 7.54
